- TARGET_ENTITY: mGlu2 (Rattus norvegicus (Rat), UniProt P31421)
- Sequence (P31421 19-872): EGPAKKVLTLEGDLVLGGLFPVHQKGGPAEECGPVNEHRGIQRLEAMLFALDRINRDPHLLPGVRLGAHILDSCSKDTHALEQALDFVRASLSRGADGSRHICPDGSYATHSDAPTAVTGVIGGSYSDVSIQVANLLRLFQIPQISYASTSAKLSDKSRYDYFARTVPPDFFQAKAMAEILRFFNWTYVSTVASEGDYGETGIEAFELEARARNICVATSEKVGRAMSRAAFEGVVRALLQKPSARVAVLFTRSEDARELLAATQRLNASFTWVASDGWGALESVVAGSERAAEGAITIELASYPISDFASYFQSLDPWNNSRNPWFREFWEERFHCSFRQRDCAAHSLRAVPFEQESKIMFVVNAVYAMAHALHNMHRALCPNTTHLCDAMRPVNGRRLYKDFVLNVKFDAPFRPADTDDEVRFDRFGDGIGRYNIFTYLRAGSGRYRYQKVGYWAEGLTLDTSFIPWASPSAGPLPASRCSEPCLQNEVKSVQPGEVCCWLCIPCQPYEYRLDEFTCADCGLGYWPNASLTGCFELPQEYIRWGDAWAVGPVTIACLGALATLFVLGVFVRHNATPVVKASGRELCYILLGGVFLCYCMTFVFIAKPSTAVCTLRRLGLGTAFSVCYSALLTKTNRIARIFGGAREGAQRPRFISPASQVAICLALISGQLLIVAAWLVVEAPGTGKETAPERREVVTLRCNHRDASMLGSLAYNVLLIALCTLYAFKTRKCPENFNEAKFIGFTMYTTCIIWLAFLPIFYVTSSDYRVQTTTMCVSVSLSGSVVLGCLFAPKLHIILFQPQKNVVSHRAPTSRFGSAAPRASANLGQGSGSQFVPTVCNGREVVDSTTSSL
- ASSAY_OVERVIEW: mGlu2 GIRK thallium flux assay;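 note: Cell-based assay, rate of fluorescence rise right after thallium plus agonist addition read on a kinetic imaging plate reader, normalized to vehicle and maximal agonist control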
- CONDITION: read-out: mGlu2 PAM EC50; PAM mode; test compound, then EC20 glutamate […] later in the presence of thallium; mean ± SEM, at least three experiments
pEC50: −log10 of the molar value.
Tick yes (1) if pEC50 is 6 or greater. Tick no (0) if pEC50 is less than 6.

A selection of reference data follows.
// query Reported pEC50 at or above 6? Cc1c(OCCCCOc2ccc(C(=O)O)cc2)ccc(C(=O)CC2CCCC2)c1C
// result no (0)

// query What do you get for Cc1c(OCCCCSc2ccncc2)ccc(C(=O)CC(C)C)c1C ?
// result no (0)

// query What do you get for Cc1c(OCc2cccc(-c3cccc(C(=O)O)c3)c2)ccc(C(=O)CC(C)(C)C)c1O ?
// result yes (1)

// query What do you get for Cc1c(OCc2cccc(COc3ccc(C#N)cc3)c2)ccc(C(=O)CC(C)C)c1C ?
// result no (0)

// query What do you get for Cc1c(OCCCCOc2cccc(C(=O)O)c2)ccc(C(=O)CC2CCCC2)c1C ?
// result no (0)

// query What do you get for Cc1c(OCCCCOc2ccccn2)ccc(C(=O)CC(C)C)c1O ?
// result no (0)

// query What do you get for Cc1c(OCCCCOc2ccc(F)c(C(=O)O)c2)ccc(C(=O)CC2CCCC2)c1C ?
// result no (0)

// query What do you get for Cc1c(OCCCCOc2ccc(C(=O)O)cc2)ccc(C(=O)CC(C)C)c1C ?
// result no (0)

// query What do you get for Cc1c(OCc2cccc(-c3occc3C(=O)O)c2)ccc(C(=O)CC(C)(C)C)c1O ?
// result yes (1)

// query What do you get for COc1ccc(C(=O)NC2CCCC2)cc1OCCCCOc1ccc(C(=O)CC(C)(C)C)c(O)c1C ?
// result no (0)

Next:
// query Reported pEC50 at or above 6? Cc1c(OCc2cccc(-c3ccc(O)c(C(=O)O)c3)c2)ccc(C(=O)CC(C)(C)C)c1O
// result yes (1)

// query What do you get for CONC(=O)c1ccc(OC)c(OCCCCOc2ccc(C(=O)CC(C)(C)C)c(O)c2C)c1 ?
// result no (0)

====

- TARGET_ENTITY: mGlu3 (Rattus norvegicus (Rat))
- Sequence (P31422 23-879): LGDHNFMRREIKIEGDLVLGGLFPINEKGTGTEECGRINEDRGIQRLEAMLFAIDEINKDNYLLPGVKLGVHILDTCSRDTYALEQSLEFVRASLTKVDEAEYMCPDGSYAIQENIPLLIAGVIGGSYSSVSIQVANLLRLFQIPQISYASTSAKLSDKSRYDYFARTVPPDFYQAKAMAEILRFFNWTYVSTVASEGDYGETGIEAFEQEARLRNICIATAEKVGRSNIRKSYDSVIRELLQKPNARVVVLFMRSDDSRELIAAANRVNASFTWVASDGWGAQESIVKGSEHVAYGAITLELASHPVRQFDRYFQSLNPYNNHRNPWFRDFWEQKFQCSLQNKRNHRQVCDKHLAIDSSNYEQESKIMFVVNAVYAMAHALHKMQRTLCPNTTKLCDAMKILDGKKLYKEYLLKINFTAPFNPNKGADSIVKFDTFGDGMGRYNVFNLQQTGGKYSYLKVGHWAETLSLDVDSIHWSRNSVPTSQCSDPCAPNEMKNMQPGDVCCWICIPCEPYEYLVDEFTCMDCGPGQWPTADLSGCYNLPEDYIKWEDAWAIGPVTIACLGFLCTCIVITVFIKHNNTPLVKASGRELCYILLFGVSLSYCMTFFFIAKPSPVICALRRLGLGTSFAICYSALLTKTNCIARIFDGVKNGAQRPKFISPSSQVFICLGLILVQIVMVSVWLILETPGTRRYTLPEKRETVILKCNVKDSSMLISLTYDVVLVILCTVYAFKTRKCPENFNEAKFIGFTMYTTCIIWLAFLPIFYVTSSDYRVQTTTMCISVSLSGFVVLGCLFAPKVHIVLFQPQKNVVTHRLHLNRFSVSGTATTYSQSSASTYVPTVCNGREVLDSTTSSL
- ASSAY_OVERVIEW: mGlu3 GIRK thallium flux assay
- CONDITION: read-out: mGlu3 PAM EC50; PAM mode; test compound, then EC20 glutamate […] later in the presence of thallium; mean ± SEM
pEC50: −log10 of the molar value.
Measured pEC50 values are reported for all entries that follow.

// query Hello, I am looking for reported pEC50 with mGlu3 (Rattus norvegicus (Rat)) for Cc1c(OCc2cccc(-c3cc(F)cc(C(=O)O)c3)c2)ccc(C(=O)CC(C)(C)C)c1O [compound 136] . Could you help?
// result 6.30

====

Measured Cmax values are reported for all entries that follow.
- ASSAY_OVERVIEW: In vivo PK in rats, i.v. administration
- Parameters: species or system rat
- CONDITION: rat, iv, 2 mg/kg, plasma
Please provide the amount together with its unit, number first.

// query Query: Cmax; subject: COc1cc(C(=O)O)ccc1OCCCCOc1ccc(C(=O)CC(C)C)c(O)c1C [Compound 44]
// result 6.43 µM

Next:
// query Query: Cmax; subject: Cc1c(OCCCCOc2ccc(C(=O)O)cc2)ccc(C(=O)CC(C)C)c1O [Compound 20]
// result 5 µM

// query What do you get for COc1ccc(C(=O)O)cc1OCCCCOc1ccc(C(=O)CC(C)C)c(O)c1C [Compound 50] ?
// result 2.15 µM

// query What do you get for Cc1c(OCCCCOc2ccc(F)c(C(=O)O)c2)ccc(C(=O)CC(C)C)c1O [Compound 36] ?
// result 3.52 µM
